Test system: EKVX NSCLC
Test: NCI tumour cell line growth inhibition, 48 h
Give measured TGI for each item. Keep answers brief.

MOL_SMILES | TGI
O=S(=O)(N=S(c1ccc(Cl)cc1)c1ccc(Cl)cc1)c1ccccc1 | > 100 µM

Hi, could you look up TGI for each item in my list?
1. N/C(=N\N=C\c1cccs1)NO
2. COc1ccc(N=c2ssc(C(=S)Nc3ccc(OC)cc3)c2S)cc1

1. > 100 µM
2. > 100 µM

====

Tested on: SN12C renal
Choose the fitting class; nothing outside yes = active, no = inactive is accepted.

MOL_SMILES | CAT
N.N.N.N.N.N.[I-].[Os] | no
COc1cc(/C=C2\CN(C)C/C(=C\c3cc(OC)c(OC)c(OC)c3)C2=O)cc(OC)c1OC | yes
O=C1c2cc3c(cc2-c2c1c1ccc(Cl)cc1c(=O)n2C[C@H](O)[C@@H](O)[C@H](O)CO)OCO3 | yes
COc1cc(/C=C/C(=O)c2ccc(Nc3ncnc4ccccc34)cc2)cc(OC)c1 | no
O=C1C(=O)c2ccccc2-c2ccccc21 | no

How was O=C(Nc1nccs1)c1cc2c(cc1Cl)Sc1nccn1S2(=O)=O classified in this test?
no

How was Cn1cccc1-c1cc(-c2cccs2)[nH]c(=O)c1C#N classified in this test?
no

====

System: 786-0 renal
Experiment: NCI tumour cell line growth inhibition, 48 h
MEASURED_PROPERTY: TGI

COMPOUND | TESTED_SYSTEM | TGI
CCOP(=O)(OCC)C1CC(O)CN1OC(=O)C(C)(C)C (stereo unspecified) | 786-0 renal | > 100 µM
COc1ccc(N=c2ssc(C(=S)Nc3ccc(OC)cc3)c2S)cc1 | 786-0 renal | > 100 µM
Nc1ncnc2c1nc(-c1ccccc1)n2C1OC(CO)C(O)C1O (stereo unspecified) | 786-0 renal | > 100 µM
CCCCCCCC/C=C/CCCCCCCC1=NC(C)(C)CN1C(C)C | 786-0 renal | 2.93 µM
COC(=O)C[C@@H]1C(C)(C)[C@@H]2O[C@@]34C[C@@H]2C(=O)[C@]1(C)[C@H]3CC[C@@]1(C)[C@H](c2ccoc2)OC(=O)C[C@]14O | 786-0 renal | > 100 µM

Hi, could you look up TGI for each item in my list?
1. C/C(CC(=O)NNc1ccc([N+](=O)[O-])cc1)=N\Nc1ccc([N+](=O)[O-])cc1
2. CCOC(=O)C(Cc1ccccc1)NC(=O)c1ccc(N=NN(C)C)cc1 (stereo unspecified)
3. COc1ccc(-c2cc(=O)c3c(OC)c(OC)c(OC)c(OC)c3o2)cc1OC
4. COc1c2c(cc3c1C(O)N1CC[C@]34[C@H]3O[C@H]3[C@H](OC)C[C@@H]14)OCO2 (stereo partly specified)
5. C[C@]12CCC(=O)C=C1CC[C@@H]1[C@@H]2[C@@H](O)C[C@@]2(C)[C@H]1CC[C@]2(O)C(=O)CO
6. N#Cc1c(-c2ccccc2)c(N=Nc2ccc(F)cc2)c(=O)n2c1[nH]c1ccccc12
7. COc1ccccc1C(C1=C(O)COC1=O)c1cc2c(cc1OC(C)=O)OCO2 (stereo unspecified)

> 100 µM
> 100 µM
> 100 µM
> 100 µM
> 100 µM
14.3 µM
> 100 µM
